method: qHTS assay to identify small molecule antagonists of the progesterone receptor (PR) signaling pathway - cell viability counter screen (AID 1346798);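 also: HEK293T PR-UAS-bla cells stimulated with the agonist R5020; % is scaled to controls: 0 for no effect and ±100 for the full control effect; nearly all actives have a fitted effect of over 50% in size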
assay setup: PR-UAS-bla HEK293T viability, CellTiter-Glo luminescence, 16 h; series mostly up to 42.5 µM
Results filed as inconclusive are left out. Activity calls are given as the source filed them. Calls follow the shape of the dose curve; as a rule, active = well fitted cell-killing curve with a large enough effect in the repeat runs; inconclusive = weak or mixed curves, or effect the other way; inactive = no such curve, though single readings can be large or run the other way.
endpoint: outcome

The following compounds have reported results that may help.
[
  {
    "chemical string": "CCc1cc(Cl)c(OC)c(C(=O)NC[C@@H]2CCCN2CC)c1O",
    "outcome": "inactive"
  },
  {
    "chemical string": "C1CSCCS1",
    "outcome": "inactive"
  },
  {
    "chemical string": "CCCCCCCCOC(=O)CCCCCCCCC(=O)OCCCCCCCC",
    "outcome": "inactive"
  },
  {
    "chemical string": "O=c1[nH]cnc2c1ncn2[C@@H]1O[C@H](CO)[C@@H](O)[C@H]1O",
    "outcome": "inactive"
  },
  {
    "chemical string": "CCOC(=O)[C@H](CCc1ccccc1)N[C@@H](C)C(=O)N1Cc2cc(OC)c(OC)cc2C[C@H]1C(=O)O",
    "outcome": "inactive"
  }
]

Okay, next one:
Task: What value of measured outcome is listed for `C[C@]12C(=O)OC(=O)[C@H]1[C@H]1C=C[C@@H]2C1` ?
Output: inactive

----------
method: qHTS RealTime-Glo MT Cell Viability Assay in HepG2 cells - 0 hour (AID 1224889); also: % is scaled to controls: 0 for no effect and ±100 for the full control effect; nearly all actives have a fitted effect of over 50% in size
assay setup: RealTime-Glo luminescence; series mostly up to 76.8 µM
Results filed as inconclusive are left out. Calls of active or inactive are those of the source. Calls follow the shape of the dose curve; as a rule, active = well fitted cell-killing curve with a large enough effect in the repeat runs; inconclusive = weak or mixed curves, or effect the other way; inactive = flat fitted curve, though single readings scatter.
endpoint: activity change, negative = cytotoxicity

Examples with answers:
[
  {
    "molecule": "COC(C)CCO (stereo unspecified)",
    "endpoint": "activity change, negative = cytotoxicity",
    "value reported": "inactive"
  },
  {
    "molecule": "C[C@@H]1CN(c2c(F)c(N)c3c(=O)c(C(=O)O)cn(C4CC4)c3c2F)C[C@H](C)N1",
    "endpoint": "activity change, negative = cytotoxicity",
    "value reported": "5.84% [at 15.8 µM] (inactive)"
  },
  {
    "molecule": "CCN(CCCc1ccccc1)CCCc1ccccc1",
    "endpoint": "activity change, negative = cytotoxicity",
    "value reported": "inactive"
  },
  {
    "molecule": "CC1(C)S[C@@H]2[C@H](NC(=O)C(C(=O)O)c3ccccc3)C(=O)N2[C@H]1C(=O)O (stereo partly specified)",
    "endpoint": "activity change, negative = cytotoxicity",
    "value reported": "inactive"
  },
  {
    "molecule": "COc1cc2c(cc1N)oc1ccccc12",
    "endpoint": "activity change, negative = cytotoxicity",
    "value reported": "inactive"
  }
]

Task: Item under review: `CN(C)C(=O)NC1(c2ccccc2)CCN(CCC[C@]2(c3ccc(Cl)c(Cl)c3)CCCN(C(=O)c3ccccc3)C2)CC1` . Reported activity change, negative = cytotoxicity?
Output: -2.18% [at 15.8 µM] (inactive)

----------
method: qHTS assay for identifying genotoxic compounds that show differential cytotoxicity against isogenic chicken DT40 cell lines with known DNA damage response pathways - wild type cell line (AID 743012); also: nearly all actives have a fitted effect of over 60% in size
assay setup: DT40 wild type chicken cells viability, CellTiter-Glo, 40 h; series mostly up to 68.4 µM
From the text: U.S. Tox21 Program National Center for Advancing Translational Sciences [NCATS] NIH Chemical Genomics Center [NCGC] U.S. Environmental Protection Agency [EPA] National Institutes of Environmental Health Sciences [NIEHS] National Toxicology Program [NTP] U.S. Food and Drug Administration [FDA] Tox21 Assay Overview: DNA repair pathways play a critical role in cellular homeostasis by repairing DNA damage induced by endogenous processes and xenobiotics. […]
Results filed as inconclusive are left out. Calls of active or inactive are those of the source. Calls follow the shape of the dose curve; as a rule, active = well fitted cell-killing curve with a large enough effect in the repeat runs; inconclusive = weak or mixed curves, or effect the other way; inactive = no such curve, though single readings can be large or run the other way.
Log the outcome using a class from active, inactive

[
  {
    "compound": "CC1CN(c2ccccc2)NC1=O (stereo unspecified)",
    "assigned label": "inactive"
  },
  {
    "compound": "CC1(C)O[C@@H]2C[C@H]3[C@@H]4CCC5=CC(=O)CC[C@]5(C)[C@@]4(F)[C@@H](O)C[C@]3(C)[C@]2(C(=O)CCl)O1",
    "assigned label": "inactive"
  },
  {
    "compound": "OCCN1CCN(CCO)CC1",
    "assigned label": "inactive"
  },
  {
    "compound": "O=CCCc1ccccc1",
    "assigned label": "inactive"
  }
]

Task: Each compound tested received a call. Report the one for `NNS(=O)(=O)c1ccc(Oc2ccc(S(=O)(=O)NN)cc2)cc1` .
Output: inactive

Task: Request: `CCCCNC(=S)NCCCC`
Output: active

Task: Same question for CC(C)(C)C1CCCCC1=O (stereo unspecified) please.
Output: inactive

----------
method: qHTS RealTime-Glo MT Cell Viability Assay in HEK293 cells - 32 hour (AID 1224868); also: top concentration of the series differs between compounds; % is scaled to controls: 0 for no effect and ±100 for the full control effect; nearly all actives have a fitted effect of over 50% in size
assay setup: RealTime-Glo luminescence; series mostly up to 76.8 µM
Inconclusive results are not listed. Activity calls are given as the source filed them. Calls come from the whole dose curve; as a rule, active = well fitted cell-killing curve with a large enough effect in the repeat runs; inconclusive = weak or mixed curves, or effect the other way; inactive = flat fitted curve, though single readings scatter.
Exercise: for every item that follows, state its recorded activity change, negative = cytotoxic.

Some solved entries appear below for comparison.
[
  {
    "compound": "COC(=O)c1ccc2cc(C(=O)OC)ccc2c1",
    "activity change, negative = cytotoxic": "-1.06% [at 15.8 µM] (inactive)"
  },
  {
    "compound": "O=C(O)c1ccccc1Nc1cc(Cl)ccc1C(=O)O",
    "activity change, negative = cytotoxic": "3.41% [at 15.8 µM] (inactive)"
  },
  {
    "compound": "NC(Cc1ccc(F)cc1)C(=O)O (stereo not given)",
    "activity change, negative = cytotoxic": "-0.0847% [at 6.97 µM] (inactive)"
  },
  {
    "compound": "O=c1oc2c(O)c(O)cc3c(=O)oc4c(O)c(O)cc1c4c23",
    "activity change, negative = cytotoxic": "-21.3% [at 15.8 µM] (inactive)"
  }
]

Task: Can you share its activity change, negative = cytotoxic? I mean this compound: `C[C@@H]1CN(c2c(F)c(N)c3c(=O)c(C(=O)O)cn(C4CC4)c3c2F)C[C@H](C)N1`
Output: -1.37% [at 15.8 µM] (inactive)

----------
method: qHTS assay to identify small molecule agonists of the estrogen related receptor (ERR) signaling pathway from Tox21 library (AID 1224849); also: % is scaled to controls: 0 for no effect and ±100 for the full control effect; nearly all actives have a fitted effect of over 15% in size
assay setup: ERR reporter cell line, ONE-Glo luciferase, 18 h; at 92.4 µM (top of the series) unless noted
The source made the active and inactive calls. Calls follow the shape of the full dose curve.
Response enum: TRUE (active), FALSE (inactive)

Please review the following examples before continuing.
[
  {
    "molecule": "CC(C)C1=CC2=CC[C@@H]3[C@](C)(CCC[C@@]3(C)C(=O)O)[C@H]2CC1",
    "assigned label": "FALSE"
  },
  {
    "molecule": "Cc1ccc(C)c(N)c1",
    "assigned label": "FALSE"
  },
  {
    "molecule": "O=C(Cl)c1cccc([N+](=O)[O-])c1",
    "assigned label": "FALSE"
  },
  {
    "molecule": "CN(C)CCOc1ccccc1Cc1ccccc1",
    "assigned label": "FALSE"
  },
  {
    "molecule": "Cc1ccccc1C(=O)Nc1ccc(C(=O)N2CCCC(O)c3cc(Cl)ccc32)c(C)c1 (stereo not drawn)",
    "assigned label": "FALSE"
  },
  {
    "molecule": "O=c1oc2c(O)c(O)cc3c(=O)oc4c(O)c(O)cc1c4c23",
    "assigned label": "FALSE"
  },
  {
    "molecule": "O=c1[nH]cnc2c1ncn2[C@@H]1O[C@H](CO)[C@@H](O)[C@H]1O",
    "assigned label": "FALSE"
  },
  {
    "molecule": "CCOc1ccc2nc(N)sc2c1",
    "assigned label": "TRUE"
  }
]

Task: Could you check what this test reported for CCN(CC)CC1CCCCN1CC(=O)N1c2ccccc2C(=O)Nc2cccnc21 (stereo not drawn) ?
Output: FALSE

Task: Same read-out for `OC[C@H]1O[C@@H](O[C@H]2[C@H](O)[C@@H](O)[C@H](O)O[C@@H]2CO)[C@H](O)[C@@H](O)[C@H]1O` ?
Output: FALSE

Task: Would you kindly repeat that for `Cc1nc(-c2ccccn2)ncc1C(=O)Nn1cc(C)c2cc(F)ccc21` ?
Output: FALSE

Task: Would you kindly repeat that for `Clc1cccc(-c2cc(Cl)cc(Cl)c2)c1` ?
Output: FALSE

Task: Also need CCOC(=O)C1CC(=O)C(=C(O)C2CC2)C(=O)C1 (stereo not drawn) , thanks.
Output: FALSE

Task: Would you mind doing `CC(C)(CO)[C@@H](O)C(=O)NCCC(=O)O` as well?
Output: FALSE

Task: What about CC(=O)OC1C2(C)CCC(C2)C1(C)C (stereo not drawn) ?
Output: FALSE

Sourced from PubChem BioAssay (Tox21)
